Entry source: patent US6608086B2

Molecular target: α2C receptor (Homo sapiens)
Construct: host or cells: LM(tk-) cells, line L-α2C
Sequence (P18825 1-462): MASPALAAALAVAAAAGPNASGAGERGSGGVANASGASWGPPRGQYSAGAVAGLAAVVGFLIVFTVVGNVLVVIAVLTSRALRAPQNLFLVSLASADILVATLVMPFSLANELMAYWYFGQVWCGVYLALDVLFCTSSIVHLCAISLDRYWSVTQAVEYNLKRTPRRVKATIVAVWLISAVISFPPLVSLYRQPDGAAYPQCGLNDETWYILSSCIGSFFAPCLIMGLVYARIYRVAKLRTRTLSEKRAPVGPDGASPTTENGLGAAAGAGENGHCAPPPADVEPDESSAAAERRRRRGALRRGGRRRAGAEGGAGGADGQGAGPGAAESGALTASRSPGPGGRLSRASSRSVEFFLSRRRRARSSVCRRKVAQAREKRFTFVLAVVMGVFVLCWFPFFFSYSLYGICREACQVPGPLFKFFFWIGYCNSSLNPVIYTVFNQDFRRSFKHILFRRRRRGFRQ
Assay: Competition binding, [3H]rauwolscine, human α2C receptor
Conditions: [3H]rauwolscine, LM(tk-) cell line L-α2C; SEM and n in lines below
property-name: pKi alpha-2 2c

compound: COc1cc2c(c(OC)c1)CCN(CCCNC(=O)C1=C(c3ccoc3)NC(C)=C(C(N)=O)C1c1ccc([N+](=O)[O-])cc1)C2.Cl.O (stereo not shown) [Example 67]
measured-value: 7.00
//
compound: CCC1=C(C(=O)NCCCN2CCc3cc(OC)c(OC)cc3C2)C(c2ccc([N+](=O)[O-])cc2)C(C(N)=O)=C(C)N1.Cl.O (stereo not shown) [Example 76]
measured-value: 7.70
//
compound: CC1=C(C(N)=O)C(c2ccc([N+](=O)[O-])cc2)C(C(=O)NC2CCN(Cc3ccccc3)CC2)=C(c2ccoc2)N1.Cl.O (stereo not shown) [Example 66]
measured-value: 6.24
//
compound: COC(=O)C1=C(C)NC(c2ccccc2)=C(C(=O)NCCCN2CCC(c3ccccc3)CC2)C1c1ccc([N+](=O)[O-])cc1.Cl (stereo not shown) [Example 79]
measured-value: 7.21
//
compound: CC(=O)C1=C(C)NC(C)=C(C(=O)NCCCN2CCC(c3ccccc3)(c3ccccc3)CC2)C1c1ccc([N+](=O)[O-])cc1 (stereo not shown) [Example 47]
measured-value: 6.43
//
compound: COC(=O)C1=C(C)NC(C)=C(C(=O)NCCCCN2CCC(c3ccccc3)(c3ccccc3)CC2)C1c1ccc([N+](=O)[O-])cc1.Cl.O (stereo not shown) [Example 53]
measured-value: 6.67
//
compound: CCC1=C(C(=O)NCCCCN2CCC(c3ccccc3)CC2)C(c2ccc([N+](=O)[O-])cc2)C(C(N)=O)=C(C)N1.Cl.O (stereo not shown) [Example 77]
measured-value: 7.42

====

Target: α2B receptor (Homo sapiens, UniProt P18089)
Construct: host or cells: LM(tk-) cells, line L-NGC-α2B
Sequence (P18089 whole entry): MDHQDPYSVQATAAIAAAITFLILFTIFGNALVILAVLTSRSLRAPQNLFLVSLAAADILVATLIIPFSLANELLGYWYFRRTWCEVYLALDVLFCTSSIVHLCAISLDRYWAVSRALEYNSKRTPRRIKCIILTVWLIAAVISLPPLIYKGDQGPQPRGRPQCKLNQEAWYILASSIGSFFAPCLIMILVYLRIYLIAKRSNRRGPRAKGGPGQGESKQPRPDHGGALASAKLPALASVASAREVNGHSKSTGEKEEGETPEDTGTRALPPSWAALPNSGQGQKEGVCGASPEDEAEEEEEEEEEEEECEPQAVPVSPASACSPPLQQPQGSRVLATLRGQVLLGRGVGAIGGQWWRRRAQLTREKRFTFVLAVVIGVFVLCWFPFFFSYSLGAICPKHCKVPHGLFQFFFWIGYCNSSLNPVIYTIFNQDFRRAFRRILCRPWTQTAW
Experiment: Competition binding, [3H]rauwolscine, human α2B receptor
Settings: pKi alpha-2 2b, [3H]rauwolscine, human α2B receptor, LM(tk−) cells
pKi: −log10 of the molar value. Where a name gives a salt, the structure may show the parent alone.
pKi reference
property-name: pKi

compound: CCC1=C(C(=O)NCCCN2CCC(c3ccccc3)(c3ccccc3)CC2)C(c2ccc([N+](=O)[O-])cc2)C(C(N)=O)=C(COCCN=[N+]=[N-])N1 (centres unmarked)
measured-value: 6.25

compound: CCC1=C(C(N)=O)C(c2ccc([N+](=O)[O-])cc2)C(C(=O)NCCCN2CCC(C)(c3ccccc3)CC2)=C(CC)N1 (centres unmarked) [Example 106, hydrochloride hydrate]
measured-value: 6.43

compound: CCC1=C(C(N)=O)C(c2ccc([N+](=O)[O-])cc2)C(C(=O)NCCCN2CCC(C#N)(c3ccccc3)CC2)=C(CC)N1 (single isomer, unassigned; (-)) [(−)-102]
measured-value: 6.23

compound: COc1ccc(C2(c3ccccc3)CCN(CCCNC(=O)C3=C(C)NC(C)=C(C(N)=O)C3c3ccc([N+](=O)[O-])cc3)CC2)cc1 (centres unmarked) [Example 98, hydrochloride]
measured-value: 6.23

compound: CCC1=C(C(=O)NCCCN2CCC(c3ccccc3)(c3ccccc3)CC2)C(c2ccc([N+](=O)[O-])cc2)C(C(=O)OC(C)(C)C)=C(COCCN=[N+]=[N-])N1 (centres unmarked)
measured-value: 5.90
